All values here come from PubChem BioAssay (NCI).

system: NCI-H226 lung; assay: NCI tumour cell line growth inhibition, 48 h
Each entry below lists one item and its recorded log10 of TGI value.
// units: µM (pre-log); metric: TGI; scale: log10

| molecule | system under test | log10 of TGI |
| --- | --- | --- |
| COc1cc(CNC2c3cc4c(cc3C(c3cc(OC)c(OC)c(OC)c3)[C@H]3C(=O)OCC23)OCO4)cc(OC)c1OC (stereo partly drawn) | NCI-H226 lung | -0.31 |

Challenge: # assay system NCI-H226 lung: give log10 of TGI of C/C=C/C1OC(O)(C(C)C(O)[C@H](C)C2OC(=O)/C(OC)=C/C(C)=C/[C@@H](C)[C@@H](O)[C@@H](C)C(O)C(C)C/C(C)=C/C=C/C2OC)C[C@@H](OC2CC(O)C(OC(N)=O)C(C)O2)C1C (stereo partly drawn)
Response given: 0.84

Challenge: # assay system NCI-H226 lung: give log10 of TGI of CC(C)=CCC/C(C)=C/CC/C(C)=C/CC/C(=C/CC/C(C)=C\CC/C(C)=C/CC/C(C)=C/CC/C(C)=C/Cc1cc(O)ccc1O)CO
Response given: 0.82

Challenge: # assay system NCI-H226 lung: give log10 of TGI of FC(F)(F)C1(Br)C(c2ccccc2)=C1c1ccccc1
Response given: 1.67

Challenge: # assay system NCI-H226 lung: give log10 of TGI of Oc1ccc(Cl)cc1CN1CCN(Cc2cc(Cl)ccc2O)C1
Response given: 0.67

Challenge: # assay system NCI-H226 lung: give log10 of TGI of O=C(CNc1ccccc1[N+](=O)[O-])Nn1c(-c2ccccc2)nc2ccccc2c1=O
Response given: 1.97

Challenge: # assay system NCI-H226 lung: give log10 of TGI of Cc1cn([C@@H]2O[C@H](CO[Si](C)(C)C(C)(C)C)[C@]3(O[C@H]3C(=O)NN)[C@H]2O[Si](C)(C)C(C)(C)C)c(=O)[nH]c1=O
Response given: 1.44

Challenge: # assay system NCI-H226 lung: give log10 of TGI of CCN(CC)CCNC(=O)c1cn2c(ccc3sc4ccccc4c(=O)c32)n1
Response given: 1.61
